- assay target: JAK1 (Homo sapiens (Human), UniProt P23458)
- Sequence (P23458 850-1154): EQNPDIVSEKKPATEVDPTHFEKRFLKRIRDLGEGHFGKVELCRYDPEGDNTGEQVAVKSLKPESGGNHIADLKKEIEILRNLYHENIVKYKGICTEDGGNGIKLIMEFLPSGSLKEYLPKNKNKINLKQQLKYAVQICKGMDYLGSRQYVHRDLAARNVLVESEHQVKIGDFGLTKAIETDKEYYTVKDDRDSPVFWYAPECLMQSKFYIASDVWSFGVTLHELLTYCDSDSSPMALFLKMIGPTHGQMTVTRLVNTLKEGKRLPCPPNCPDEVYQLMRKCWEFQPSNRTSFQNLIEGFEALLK
- protocol description: JAK kinase assay (HTRF), JAK1
- measurement conditions: catalytic domain, ATP at Km (7 μM)
# maps each entry to its pEC50
Reminder that pEC50 is minus the log10 of a molar concentration.

Example compounds with recorded pEC50:
compound=COc1cc(CNC(=O)[C@H]2CCN(c3ncnc4[nH]ccc34)CC23CC3)ccc1C#N assay_target="JAK1 (Homo sapiens (Human), UniProt P23458)" readout_number=8.07
compound="N#Cc1ccc(CNC(=O)C2CCN(c3ncnc4[nH]ccc34)CC23CC3)cc1 (centres unmarked)" assay_target="JAK1 (Homo sapiens (Human), UniProt P23458)" readout_number=8.85
compound=O=C(OCC1(CO)CCCC1)[C@H]1CCN(c2ncnc3[nH]ccc23)CC12CC2 assay_target="JAK1 (Homo sapiens (Human), UniProt P23458)" readout_number=9.30

Read off the recorded pEC50 for Cc1cc([C@H](O)[C@H](C)NC(=O)[C@H]2CCN(c3ncnc4[nH]ccc34)CC23CC3)ccc1F 8.62

Read off the recorded pEC50 for C[C@](CO)(NC(=O)[C@H]1CCN(c2ncnc3[nH]ccc23)CC12CC2)c1ccc(C#N)cc1 8.85

Read off the recorded pEC50 for O=C(OCC1CC(F)(F)C1)C1CCN(c2ncnc3[nH]ccc23)CC12CC2 (centres unmarked) 8.64

Read off the recorded pEC50 for O=C(N[C@H](CO)C(=O)OCc1ccccc1)[C@H]1CCN(c2ncnc3[nH]ccc23)CC12CC2 8.17

Read off the recorded pEC50 for O=C(NCC1(O)CCCC1)C1CCN(c2ncnc3[nH]ccc23)CC12CC2 (centres unmarked) 8.14

* * *

- protocol description: in vitro metabolic stability in human liver microsomes
- Type: in vitro ADME
- measurement conditions: human, liver microsomes, 0.5 μM compound, 0.5 mg/mL microsomes, NADPH, 40 min, 37° C.; read-out: Human liver microsome Clapp (apparent intrinsic clearance)
Criterion: CLint scaled at 0.5 μM meeting or surpassing 40 mL/min/kg. Met: 1 (yes). Not met: 0 (no).

Some solved entries appear below for comparison.
compound=C[C@H](NC(=O)[C@H]1CCN(c2ncnc3[nH]ccc23)CC12CC2)[C@@H](O)C1CCCC1 assigned_label="1 (yes)"
compound=C[C@H](NC(=O)[C@H]1CCN(c2ncnc3[nH]ccc23)CC12CC2)c1ccc(C#N)cc1F assigned_label="1 (yes)"
compound=O=C(NC[C@@H](O)c1ccccc1)[C@H]1CCN(c2ncnc3[nH]ccc23)CC12CC2 assigned_label="1 (yes)"

Kindly determine if CLint scaled at 0.5 μM recorded for O=C(OCC1CC(F)(F)C1)C1CCN(c2ncnc3[nH]ccc23)CC12CC2 (stereo not shown) is above or exactly 40 mL/min/kg. 1 (yes)

Kindly determine if CLint scaled at 0.5 μM recorded for C[C@H](NC(=O)C1CCN(c2ncnc3[nH]ccc23)CC12CC2)c1ccc(C#N)cc1 (stereo partly shown) is above or exactly 40 mL/min/kg. 1 (yes)

Kindly determine if CLint scaled at 0.5 μM recorded for O=C(N[C@H](CO)C(=O)OCC1CC1)[C@H]1CCN(c2ncnc3[nH]ccc23)CC12CC2 is above or exactly 40 mL/min/kg. 0 (no)

Kindly determine if CLint scaled at 0.5 μM recorded for N#Cc1ccc([C@@H](O)CNC(=O)[C@H]2CCN(c3ncnc4[nH]ccc34)CC23CC3)nc1 is above or exactly 40 mL/min/kg. 1 (yes)

Kindly determine if CLint scaled at 0.5 μM recorded for O=C(NCC1(O)CCC1)[C@H]1CCN(c2ncnc3[nH]ccc23)CC12CC2 is above or exactly 40 mL/min/kg. 0 (no)

Kindly determine if CLint scaled at 0.5 μM recorded for O=C(OCC1(CO)CC(F)(F)C1)[C@H]1CCN(c2ncnc3[nH]ccc23)CC12CC2 is above or exactly 40 mL/min/kg. 1 (yes)

Kindly determine if CLint scaled at 0.5 μM recorded for O=C(N[C@@H](CO)[C@@H](O)c1ccc(F)cn1)[C@H]1CCN(c2ncnc3[nH]ccc23)CC12CC2 is above or exactly 40 mL/min/kg. 0 (no)

Kindly determine if CLint scaled at 0.5 μM recorded for N#CCC1(COC(=O)[C@H]2CCN(c3ncnc4[nH]ccc34)CC23CC3)CC1 is above or exactly 40 mL/min/kg. 1 (yes)

Kindly determine if CLint scaled at 0.5 μM recorded for O=C(NC[C@@H](O)C1CCCCC1)[C@H]1CCN(c2ncnc3[nH]ccc23)CC12CC2 is above or exactly 40 mL/min/kg. 1 (yes)

Kindly determine if CLint scaled at 0.5 μM recorded for O=C(OCC1(CO)CCCC1)[C@H]1CCN(c2ncnc3[nH]ccc23)CC12CC2 is above or exactly 40 mL/min/kg. 1 (yes)

Kindly determine if CLint scaled at 0.5 μM recorded for Cc1cc(C#N)ccc1[C@H](CO)NC(=O)[C@H]1CCN(c2ncnc3[nH]ccc23)CC12CC2 is above or exactly 40 mL/min/kg. 1 (yes)

Kindly determine if CLint scaled at 0.5 μM recorded for C[C@](CO)(NC(=O)[C@H]1CCN(c2ncnc3[nH]ccc23)CC12CC2)c1ccc(C#N)cc1 is above or exactly 40 mL/min/kg. 1 (yes)
